Hey, just so you know, these numbers are from patent US20220315567A1.

MEASUREMENT_TARGET: human OPRM1 (μ, MOR) (Homo sapiens)
Construct: host or cells: CHO-K1
Sequence (P35372 whole entry): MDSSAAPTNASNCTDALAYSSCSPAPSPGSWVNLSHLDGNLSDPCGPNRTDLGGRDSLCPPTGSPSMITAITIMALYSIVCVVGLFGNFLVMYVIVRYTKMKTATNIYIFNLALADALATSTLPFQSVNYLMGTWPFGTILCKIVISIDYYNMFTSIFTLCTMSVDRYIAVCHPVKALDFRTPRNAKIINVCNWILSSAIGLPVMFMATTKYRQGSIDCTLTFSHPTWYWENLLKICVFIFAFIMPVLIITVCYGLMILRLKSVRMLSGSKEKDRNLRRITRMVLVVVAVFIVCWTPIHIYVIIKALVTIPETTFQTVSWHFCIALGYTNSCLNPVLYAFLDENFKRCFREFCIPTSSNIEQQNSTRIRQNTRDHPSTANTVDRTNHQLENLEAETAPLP
TEST_SUMMARY: cell-based
ASSAY_CONTEXT: OPRM1, read-out: cAMP Emax
Structures can show the parent of a compound that is named as a salt.
Property: Emax; scope: individual compounds

>  <COMPOUND>
CN(C)C1(CNC(=O)N2Cc3ccc(F)cc3C2)CCOCC1 [Compound 61]

>  <RESULT>
104%

$$$$

What value of Emax has been recorded for this entry: CN(C)C(CNC(=O)N1Cc2ccccc2C1)c1ccc(F)cc1Cl (centres unmarked) [Compound 14a, hydrochloride] 102%

What would you report for CN(C)C(CNC(=O)N1Cc2cc(F)c(F)cc2C1)c1ccsc1 (centres unmarked) [Compound 6a, hydrochloride] ? 21.9%

What would you report for CN(C)C(CNC(=O)N(C)[C@H]1CCCc2ccccc21)c1ccsc1 (some centres unmarked) [Compound 39] ? 93.4%

What would you report for CN(C)C1(CNC(=O)N[C@H]2CCc3ccccc3C2)CCCCC1 [Compound 56] ? 43.3%
